Endpoint Label: melting point

Molecule: S=c1nc(-c2cc(Cl)cc(Cl)c2)[nH]n1Cc1ccccc1
Endpoint Label: melting point
Assay Result: 205 to 212 °C
--
Molecule: CC1(C)C2CC[C@]1(C)C(=O)C(C(=O)Nc1ccc(Cl)c(Cl)c1)C2=O (stereo not given in full)
Endpoint Label: melting point
Assay Result: 88 to 90 °C
--
Molecule: CC(C)(C)OC(=O)N1C2CCC1CN(CCCNc1ccc(C#N)cc1)C2
Endpoint Label: melting point
Assay Result: 124 to 127 °C
--
Molecule: CC(C)(C(=O)c1ccccc1OCC(=O)O)N1CCN(c2ccncc2)CC1
Endpoint Label: melting point
Assay Result: 278 to 279 °C

Now turn to the next molecule.
## Input Item under review: `CCOC(=O)C(=O)Nc1cccc(NC(=O)C(=O)OCC)n1` . Reported melting point?
## Output 179 to 180 °C

----------
Endpoint Label: melting point

Molecule: COc1ccc(P2(=O)c3ccccc3CN2c2ccccc2)c(OC)c1 (stereo not given)
Assay Result: 173 to 175 °C
//
Molecule: CCOC(=O)c1cccc2nc(OCC)n(Cc3ccc(-c4ccccc4-c4nnn[nH]4)cc3)c12
Assay Result: 158 to 159 °C
//
Molecule: CC(c1ccc(OC(=O)CCl)cc1)(c1ccc(OC(=O)CCl)cc1)c1ccc(OC(=O)CCl)cc1
Assay Result: 144 to 146 °C
//
Molecule: NS(=O)(=O)c1cc(C(=O)O)cc([N+](=O)[O-])c1Nc1cccc(C(F)(F)F)c1
Assay Result: 213 to 215 °C
//
Molecule: O=C1Nc2ccccc2N2CCN(Cc3ccncc3)CC12 (stereo not given)
Assay Result: 253 to 255 °C

## Input Item under review: `COC(=O)c1cc(OC)c2c(c1)OCO2` . Reported melting point?
## Output 91 °C

## Input Item under review: `COc1cccc(COCc2cccc(OC)c2OC)c1OC` . Reported melting point?
## Output 58 to 60 °C

## Input Item under review: `CC1(C)C=C(C(=O)O)CC1` . Reported melting point?
## Output 67 to 69 °C

## Input Item under review: `O=C1Cc2c([nH]c3ccc([N+](=O)[O-])cc23)-c2cc(Br)ccc2N1` . Reported melting point?
## Output > 330 °C

## Input Item under review: `COc1ccc(C=Cc2c(Cl)cncc2Cl)c2c1OC1(CCCC1)O2` . Reported melting point?
## Output 100 to 101 °C

## Input Item under review: `CC(C)(C)OC(=O)N[C@@H](Cc1ccc(NC(=O)OCC2c3ccccc3-c3ccccc32)cc1)C(=O)OCc1ccccc1` . Reported melting point?
## Output 186 to 187 °C

## Input Item under review: `O=C1c2ccccc2CN1C1CCN(C/C=C\CC2c3ccccc3-c3ccccc32)CC1` . Reported melting point?
## Output 112 to 116 °C

----------
# melting point per entry

Look over these answered cases.
Molecule: COc1ccc(C(O)CCCC(=O)Nc2ccccc2)cc1 (stereo not drawn)
Endpoint Label: melting point
Assay Result: 96 to 96.5 °C
--
Molecule: O=C(CC(F)(F)F)NC[C@H]1CN(c2ccc3c(c2)CCCc2cn[nH]c2-3)C(=O)O1
Endpoint Label: melting point
Assay Result: 243 to 245 °C

Now turn to the next molecule.
## Input Item under review: `O=C(/C=C/[C@@H]1[C@H]2CC(=O)O[C@H]2C[C@H]1OC(=O)c1ccccc1)CCc1ccccc1` . Reported melting point?
## Output 119 to 120 °C

----------
Endpoint Label: melting point

## Input Item under review: `O=C1CC(c2cccc(-n3ccnc3)c2)=Nc2cc(Cl)c(-c3ccc(F)cc3)cc2N1` . Reported melting point?
## Output 209 to 211 °C

## Input Item under review: `COc1cccc(OC)c1C#CC(F)(F)F` . Reported melting point?
## Output 110 to 111 °C

## Input Item under review: CCn1nnnc1NCC(O)COc1cccc(CN2CCCCC2)c1 (stereo not drawn) . Reported melting point?
## Output 111 to 113 °C

## Input Item under review: COC(=O)Nc1cn2cc(S(=O)c3ccccn3)ccc2n1 (stereo not drawn) . Reported melting point?
## Output 231 to 235 °C

## Input Item under review: `C[Si](C)(O[Si](C)(C)c1cccnc1F)c1cccnc1F` . Reported melting point?
## Output 41 to 42 °C

## Input Item under review: `OCc1cc2sccc2s1` . Reported melting point?
## Output 91 to 93 °C

## Input Item under review: CC(=O)NCC1CC(c2ccc(N3CCS(=O)CC3)c(F)c2)=NO1 (stereo not drawn) . Reported melting point?
## Output 204 to 205 °C

## Input Item under review: `CN1C(=O)CC[C@]2(C)c3ccc(-c4ccc(O)c(Cl)c4)cc3CC[C@@H]12` . Reported melting point?
## Output 245 °C

----------
Endpoint Label: melting point

Compound: CCOc1cc2ncc(C#N)c(NCc3ccc(Cl)c(Cl)c3)c2cc1OCC
Endpoint Label: melting point
Assay Result: 163 to 165 °C

## Input Item under review: `Cc1cc(O)ccc1-c1c(C=O)sc(-c2ccc(O)c(F)c2)c1C` . Reported melting point?
## Output 227 to 230 °C

## Input Item under review: CCOc1cc([C@@H]2CC=CC[C@H]2[N+](=O)[O-])ccc1OC (racemic) . Reported melting point?
## Output 66 to 67 °C

## Input Item under review: `CC(=O)Nc1ccc2oc3c(OC(F)F)ccc(C(=O)Nc4c(Cl)cncc4Cl)c3c2c1` . Reported melting point?
## Output 234 °C

## Input Item under review: `Clc1cc(Cl)c2cccc3c2c1N=C3NCCCCn1ccnc1` . Reported melting point?
## Output 187 to 188 °C

## Input Item under review: `CC(C)(C)CC(C)(C)c1ccc(Oc2cc(N)c(O)cc2[N+](=O)[O-])cc1` . Reported melting point?
## Output 187 to 189 °C

## Input Item under review: CC(C)CCCC(C)C1CC(O)C2=C3C(O)CC4CC(OC(=O)c5ccccc5)CCC4(C)C3CCC21C (centres undefined) . Reported melting point?
## Output 178 to 179 °C

## Input Item under review: `Cn1c([N+](=O)[O-])cnc1-c1nc2ccccc2[nH]1` . Reported melting point?
## Output 257 °C

----------
# melting point per entry
Give a bare numeral; the unit °C is implied.

Compound: COC(=O)c1ccc(Br)cc1OC(=S)N(C)C
melting point / °C: 118

Now turn to the next compound.
## Input Item under review: CC(C)(C)OC1OC(=O)CC(C)(C)C1OS(C)(=O)=O (stereo not drawn) . Reported melting point?
## Output 64

----------
Endpoint Label: melting point

Smiles Input: CCCc1nc(C(=O)CC)c(C)[nH]1
melting point: 63 to 67 °C

Smiles Input: CC(C)(C)C(=O)N[C@H]1CC[C@H](CCN2CCC(c3cccc4c3CCO4)CC2)CC1
melting point: 192 °C

Smiles Input: Oc1ccc(N=Cc2ccccc2)cc1
melting point: 182 to 183 °C

Smiles Input: CC(=O)Nc1ccc(CBr)c(C)c1C#N
melting point: 152 to 153 °C

Smiles Input: Clc1cnc2ccc(Cl)c(Cl)c2n1
melting point: 118 to 119 °C

## Input Item under review: `CCOC(=O)c1nn(C)cc1-c1ccccc1` . Reported melting point?
## Output 145 °C

## Input Item under review: `Cc1c(OCCCO)ccnc1CO` . Reported melting point?
## Output 65 to 70 °C

## Input Item under review: `CCOC(=O)c1cc(C)c2c(c1)c1ccccc1n2Cc1ccccc1` . Reported melting point?
## Output 118 to 119 °C

----------
Endpoint Label: melting point

Compound: CC(C)(C)c1ccccc1C(=O)O
melting point: 38.5 to 40.5 °C
--
Compound: O=c1[nH]c2c(c3nc(-c4ccccc4)nn13)CN(Cc1ccccc1)CC2
melting point: 257 to 259 °C
--
Compound: COC(=O)c1ccc(OCCCN2CCC(C(=O)c3nc4ccccc4s3)CC2)cc1
melting point: 108 to 110 °C
--
Compound: CCc1noc(-c2cn(-c3cccc(OC)c3)cn2)n1
melting point: 89 to 90 °C

## Input Item under review: O=S(CCCc1nc(-c2ccc(F)cc2)c(-c2ccncc2)[nH]1)c1ccccc1 (stereo not drawn) . Reported melting point?
## Output 146 to 148 °C

## Input Item under review: `COCS[C@H](C)[C@](O)(Cn1cncn1)c1ccc(Cl)cc1` . Reported melting point?
## Output 122 °C

## Input Item under review: `CCc1cc(NC(=O)N2CCc3cc(OC)c(C(F)(F)F)cc32)cc(-c2cccnc2)c1` . Reported melting point?
## Output 205 to 207 °C

----------
Endpoint Label: melting point

Look over these answered cases.
Compound: CCOC(=O)Cc1ccc(-c2nc(COc3ccc(C=O)cc3OC)c(C)o2)cc1
Assay Result: 151 to 152 °C
--
Compound: CC(n1ncnn1)C(F)(c1ccc(OC(F)(F)F)cc1)c1ccc(OC(F)(F)F)cc1 (configuration not stated)
Assay Result: 68 to 70 °C
--
Compound: CCCC/C=C\c1c([C@H](O)[C@H](CCCC)NC(=O)[C@H](CC(C)C)NC(=O)OCc2ccccc2)c1=O
Assay Result: 87 to 94 °C
--
Compound: CC1=C(C(=O)OCCCl)C(c2cccc([N+](=O)[O-])c2)C(C(=O)OCC(C)C)=C(C)N1 (configuration not stated)
Assay Result: 150 to 153 °C
--
Compound: COc1c(C)cnc(CSc2nc3cc(OC(F)(F)F)ccc3[nH]2)c1C
Assay Result: 152 to 154 °C

## Input Item under review: `CC(C)(C)OC(=O)CCc1cc(S(C)(=O)=O)cc(-c2nc(=O)c3ccc(Cl)cc3s2)n1` . Reported melting point?
## Output 184 °C

## Input Item under review: CC1CCCN1CC=CC(=O)Nc1cc2c(Nc3ccc(F)c(Cl)c3)ncnc2cc1OCC1CC1 (configuration not stated) . Reported melting point?
## Output 108 to 110 °C
